Source: PubChem BioAssay AID434961

biological target: Regulator of chromosome condensation (Homo sapiens) + GTP-binding nuclear protein Ran (Homo sapiens) + Importin subunit beta-1 (Homo sapiens) (UniProt P18754+P62826+Q14974); test: RanGTP/importin-beta interaction disruptors – biochemical, CFP-Ran/YFP-importin-beta FRET, RCC1, cell-free, primary screen (AID 434961); conditions: active compounds read high, concentration not given here;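 note: 0% = DMSO wells and 100% inhibition = RanGDP control wells on each plate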
Among all 7,700 compounds or so, about 15 (0.2%) were called active. Roughly 6% stayed inconclusive and do not appear here. Many of the other results were omitted from the sample, so actives are more common in it than they were.
Exercise: for every item that follows, state its recorded inhibition.
Give bare numbers, in %.

Sample answers from the record:
smiles	inhibition / %
C[C@H]1CN([C@@H](C)CO)C(=O)Cc2cc(NC(=O)C3CC3)ccc2O[C@H]1CN(C)Cc1ccc(Cl)c(Cl)c1	7.64
C[C@@H]1CCCCO[C@H](CN(C)C)[C@@H](C)CN([C@H](C)CO)C(=O)c2cc(NC(=O)Cc3ccccc3)ccc2O1	-1.13
C[C@@H]1CN([C@H](C)CO)C(=O)Cc2cc(NS(=O)(=O)c3cn(C)cn3)ccc2O[C@H]1CN(C)CC1CC1	1.45

Item C[C@@H]1CN([C@H](C)CO)C(=O)c2cc(NS(=O)(=O)c3ccccc3)ccc2O[C@@H](C)CCCCO[C@@H]1CN(C)Cc1ccc2c(c1)OCO2 has what recorded inhibition?
-2.27

====

molecular target: Regulator of chromosome condensation (Homo sapiens) + GTP-binding nuclear protein Ran (Homo sapiens) + Importin subunit beta-1 (Homo sapiens) (UniProt P18754+P62826+Q14974); assay: RanGTP/importin-beta interaction disruptors – biochemical, CFP-Ran/YFP-importin-beta FRET, RCC1, cell-free, primary screen (AID 434961); details: active compounds read high, concentration not given here;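 note: 0% = DMSO wells and 100% inhibition = RanGDP control wells on each plate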
Screen size: about 7,700 compounds; about 15 (0.2%) were called active. Roughly 6% stayed inconclusive and do not appear here. This is one part of a sample in which actives are shown more often than they occur.
assay-metric: inhibition (%)
Give bare numbers, in %.

Sample answers from the record:
smiles	inhibition, %
C[C@@H]1CN([C@@H](C)CO)C(=O)c2cc(NC(=O)c3ccncc3)ccc2O[C@H]1CN(C)C(=O)Nc1ccccc1	4.49
Cc1noc(C)c1NC(=O)Nc1ccc2c(c1)CC(=O)N([C@H](C)CO)C[C@@H](C)[C@@H](CN(C)C(=O)NC(C)C)O2	0.926
COc1ccc(NC(=O)Nc2ccc3c(c2)C(=O)N([C@H](C)CO)C[C@@H](C)[C@@H](CN(C)S(=O)(=O)c2cn(C)cn2)O3)cc1	0.222
C[C@@H]1CCCCO[C@@H](CN(C)S(=O)(=O)c2ccc(F)cc2)[C@@H](C)CN([C@@H](C)CO)C(=O)c2cc(NC(=O)C3CCCCC3)ccc2O1	2.57
C[C@H](CO)N1C[C@H](C)[C@@H](CN(C)Cc2ccc(C(=O)O)cc2)Oc2ccc(NC(=O)NC3CCCCC3)cc2C1=O	-0.0517

Provide inhibition for all items below, preserving their order.
1. C[C@@H]1CCCCO[C@H](CN(C)Cc2ccncc2)[C@H](C)CN([C@H](C)CO)C(=O)c2cc(NC(=O)c3ccncc3)ccc2O1
2. C[C@H](CO)N1C[C@H](C)[C@@H](CN(C)C(=O)Nc2cccc3ccccc23)Oc2ccc(NC(=O)NC3CCCCC3)cc2CC1=O
3. C[C@@H]1CN([C@@H](C)CO)C(=O)c2cc(NC(=O)Nc3ccc4c(c3)OCO4)ccc2O[C@@H]1CN(C)C
4. C[C@@H]1CN([C@@H](C)CO)C(=O)Cc2cc(NC(=O)Nc3ccc4c(c3)OCO4)ccc2O[C@H]1CN(C)C(=O)NC1CCCCC1
5. C[C@@H]1CCCCO[C@@H](CN(C)S(=O)(=O)c2ccccc2)[C@@H](C)CN([C@@H](C)CO)C(=O)c2cc(NS(C)(=O)=O)ccc2O1
6. C[C@@H]1CCCCO[C@@H](CN(C)C(=O)C2CCCCC2)[C@@H](C)CN([C@@H](C)CO)C(=O)c2cc(NS(C)(=O)=O)ccc2O1
7. COc1ccc(CN(C)C[C@@H]2Oc3c(NS(=O)(=O)c4cn(C)cn4)cccc3C(=O)N([C@H](C)CO)C[C@@H]2C)cc1

1: -0.929; 2: -2.7; 3: -2.36; 4: -2.22; 5: 1.15; 6: -4.64; 7: -1.87
